Assay: Clearance in rat after iv dose (100 ug/kg)
Type: ADME, organism-based
Settings: in vivo, 0.1 mg/kg
Square brackets hold non-standard residues; d marks the D form. Peptide text beside a SMILES is read from it. 1Nal = N[C@@H](Cc1cccc2ccccc12)C(=O)O; NMeF = CN[C@@H](Cc1ccccc1)C(=O)O; pGlu = O=C1CC[C@@H](C(=O)O)N1; NMeS = CN[C@@H](CO)C(=O)O
property_measured: clearance (mL/min/kg)
Report as a plain number; the unit mL/min/kg is understood.

>>> assay_value("CC(C)C[C@H](NC(=O)[C@@H](Cc1ccc2ccccc2c1)NC(=O)[C@H](Cc1ccc(O)cc1)NC(=O)[C@H](CO)N(C)C(=O)[C@H](Cc1c[nH]c2ccccc12)NC(=O)[C@H](Cc1c[nH]cn1)NC(=O)[C@@H]1CCC(=O)N1)C(=O)N[C@@H](CCCN=C(N)N)C(=O)N1CCC[C@H]1C(=O)NCC(N)=O")
27.6
>>> assay_value("CC(C)C[C@H](NC(=O)[C@@H](Cc1ccc2ccccc2c1)NC(=O)[C@H](Cc1ccc(O)cc1)NC(=O)[C@H](CO)NC(=O)[C@H](Cc1c[nH]c2ccccc12)NC(=O)[C@H](Cc1c[nH]cn1)N(C)C(=O)[C@@H]1CCC(=O)N1)C(=O)N[C@@H](CCCN=C(N)N)C(=O)N1CCC[C@H]1C(=O)NCC(N)=O")
4.13
>>> assay_value("CC(C)C[C@H](NC(=O)[C@@H](Cc1ccc2ccccc2c1)NC(=O)[C@H](Cc1ccc(O)cc1)NC(=O)[C@H](CO)NC(=O)[C@H](Cc1c[nH]c2ccccc12)NC(=O)[C@H](Cc1cnc[nH]1)NC(=O)[C@@H]1CCC(=O)N1)C(=O)N[C@@H](CCCNC(=N)N)C(=O)N1CCC[C@H]1C(=O)NCC(N)=O [NAFARELIN]")
5.5
>>> assay_value("CC(C)C[C@H](NC(=O)[C@@H](CC(C)C)NC(=O)[C@H](Cc1ccc(O)cc1)NC(=O)[C@H](CO)NC(=O)[C@H](Cc1c[nH]c2ccccc12)NC(=O)[C@H](Cc1c[nH]cn1)NC(=O)[C@@H]1CCC(=O)N1)C(=O)N[C@@H](CCCN=C(N)N)C(=O)N1CCC[C@H]1C(=O)N(C)CC(N)=O")
9.77
>>> assay_value("CCNC(=O)[C@@H]1CCCN1C(=O)[C@H](CCCN=C(N)N)NC(=O)[C@H](CC(C)C)NC(=O)[C@@H](Cc1c[nH]c2ccccc12)NC(=O)[C@H](Cc1ccc(O)cc1)NC(=O)[C@H](CO)NC(=O)[C@H](Cc1c[nH]c2ccccc12)NC(=O)[C@H](Cc1cnc[nH]1)N(C)C(=O)[C@@H]1CCC(=O)N1")
16.4
>>> assay_value("CCNC(=O)[C@@H]1CCCN1C(=O)[C@H](CCCN=C(N)N)NC(=O)[C@H](CC(C)C)NC(=O)[C@@H](Cc1c[nH]c2ccccc12)NC(=O)[C@H](Cc1ccc(O)cc1)N(C)C(=O)[C@H](CO)NC(=O)[C@H](Cc1c[nH]c2ccccc12)NC(=O)[C@H](Cc1c[nH]cn1)NC(=O)[C@@H]1CCC(=O)N1")
11.1
>>> assay_value("CCNC(=O)[C@@H]1CCCN1C(=O)[C@H](CCCN=C(N)N)NC(=O)[C@H](CC(C)C)NC(=O)[C@@H](Cc1c[nH]c2ccccc12)NC(=O)[C@H](Cc1ccc(O)cc1)NC(=O)[C@H](CO)NC(=O)[C@H](Cc1cccc2ccccc12)N(C)C(=O)[C@H](Cc1c[nH]cn1)NC(=O)[C@@H]1CCC(=O)N1")
15.1
>>> assay_value("CCNC(=O)[C@@H]1CCCN1C(=O)[C@H](CCCNC(=N)N)NC(=O)[C@H](CC(C)C)N(C)C(=O)[C@@H](Cc1c[nH]c2ccccc12)NC(=O)[C@H](Cc1ccc(O)cc1)NC(=O)[C@H](CO)NC(=O)[C@H](Cc1c[nH]c2ccccc12)NC(=O)[C@H](Cc1c[nH]cn1)NC(=O)[C@@H]1CCC(=O)N1 [LUTRELIN]")
19.5
>>> assay_value("CCNC(=O)[C@@H]1CCCN1C(=O)[C@H](CCCNC(=N)N)NC(=O)[C@H](CC(C)C)NC(=O)[C@@H](Cc1c[nH]c2ccccc12)NC(=O)[C@H](Cc1ccc(O)cc1)NC(=O)[C@H](CO)NC(=O)[C@H](Cc1c[nH]c2ccccc12)NC(=O)[C@H](Cc1c[nH]cn1)NC(=O)[C@@H]1CCC(=O)N1 [DESLORELIN]")
34.3
>>> assay_value("CCNC(=O)[C@@H]1CCCN1C(=O)[C@H](CCCN=C(N)N)NC(=O)[C@H](CC(C)C)NC(=O)[C@@H](CC(C)C)NC(=O)[C@H](Cc1ccc(O)cc1)NC(=O)[C@H](CO)N(C)C(=O)[C@H](Cc1c[nH]c2ccccc12)NC(=O)[C@H](Cc1c[nH]cn1)NC(=O)[C@@H]1CCC(=O)N1 ([pGlu]HW[NMeS]Y[dL]LRP-NHEt)")
16.9

For CCNC(=O)[C@@H]1CCCN1C(=O)[C@H](CCCN=C(N)N)NC(=O)[C@H](CC(C)C)NC(=O)[C@@H](Cc1c[nH]c2ccccc12)NC(=O)[C@H](Cc1ccc(O)cc1)NC(=O)[C@H](CO)NC(=O)[C@H](Cc1c[nH]c2ccccc12)NC(=O)[C@H](Cc1ccccc1)N(C)C(=O)[C@@H]1CCC(=O)N1 ([pGlu][NMeF]WSY[dW]LRP-NHEt) , what is its reported clearance?
44.5

For CCNC(=O)[C@@H]1CCCN1C(=O)[C@H](CCCN=C(N)N)NC(=O)[C@H](CC(C)C)NC(=O)[C@@H](CC(C)C)NC(=O)[C@H](Cc1ccc(O)cc1)NC(=O)[C@H](CO)NC(=O)[C@H](Cc1cccc2ccccc12)NC(=O)[C@H](Cc1c[nH]cn1)NC(=O)[C@@H]1CCC(=O)N1 ([pGlu]H[1Nal]SY[dL]LRP-NHEt) , what is its reported clearance?
28.4

For CCNC(=O)[C@@H]1CCCN1C(=O)[C@H](CCCN=C(N)N)NC(=O)C(CC(C)C)NC(=O)C(CC(C)C)NC(=O)[C@H](Cc1ccc(O)cc1)NC(=O)[C@H](CO)NC(=O)[C@H](Cc1c[nH]c2ccccc12)NC(=O)[C@H](Cc1ccccc1)N(C)C(=O)[C@@H]1CCC(=O)N1 (stereo in doubt) , what is its reported clearance?
31
